Answer each item with its documented EC50.
# assay target: human GPR120 (Homo sapiens, UniProt Q5NUL3)
# Construct: host or cells: CHO-K1
# Sequence (Q5NUL3 1-377 isoform Q5NUL3-1): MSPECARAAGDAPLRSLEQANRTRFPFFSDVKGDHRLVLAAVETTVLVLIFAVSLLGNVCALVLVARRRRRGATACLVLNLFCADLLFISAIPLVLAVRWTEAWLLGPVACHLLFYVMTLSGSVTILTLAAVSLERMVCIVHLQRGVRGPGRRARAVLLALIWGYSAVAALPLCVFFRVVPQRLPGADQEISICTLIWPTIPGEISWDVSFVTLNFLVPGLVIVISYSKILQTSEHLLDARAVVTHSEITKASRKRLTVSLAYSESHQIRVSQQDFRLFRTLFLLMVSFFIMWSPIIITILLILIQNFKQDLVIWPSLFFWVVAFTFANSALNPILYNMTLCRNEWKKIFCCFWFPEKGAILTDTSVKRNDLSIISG
# Sequence (P32121 whole entry partner): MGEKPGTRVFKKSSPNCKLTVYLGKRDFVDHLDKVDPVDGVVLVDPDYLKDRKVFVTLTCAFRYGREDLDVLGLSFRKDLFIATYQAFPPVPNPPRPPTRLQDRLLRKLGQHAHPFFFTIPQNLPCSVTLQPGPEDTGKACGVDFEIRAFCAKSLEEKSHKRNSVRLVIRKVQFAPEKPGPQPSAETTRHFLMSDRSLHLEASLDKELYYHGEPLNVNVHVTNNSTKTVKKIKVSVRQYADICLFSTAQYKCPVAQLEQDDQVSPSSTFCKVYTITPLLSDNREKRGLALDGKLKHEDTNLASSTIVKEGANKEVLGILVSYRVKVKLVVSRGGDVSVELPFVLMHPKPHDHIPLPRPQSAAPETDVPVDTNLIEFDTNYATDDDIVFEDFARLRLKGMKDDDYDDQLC
# assay info: GPR120 β-Arrestin Recruitment Assay (PathHunter, CHO-K1 cells)
# Type: cell-based
# condition context: pEC50=−log(EC50) from curve fit; CHO-K1 cells, 90 min incubation; read-out: β-Arr pEC50 (converted)
Use µM as the unit, but write only the number.

Fill in: EC50 of "O=S1(=O)c2ccccc2CN1c1ccnc(Oc2cccc(Cl)c2)n1" is ___
1.58

Fill in: EC50 of "O=S1(=O)c2ccccc2CN1c1ccnc(Oc2cncc3ccccc23)n1" is ___
25.1

Fill in: EC50 of "Cc1cc(OC2CCC2)nc(N2Cc3ccccc3S2(=O)=O)c1" is ___
0.0398

Fill in: EC50 of "O=S1(=O)c2ccccc2CN1c1ccnc(Oc2ccccc2)n1" is ___
6.31

Fill in: EC50 of "CC(=O)Nc1cc(Oc2ccc(Cl)cc2)nc(N2Cc3ccccc3S2(=O)=O)c1" is ___
3.16

Fill in: EC50 of "O=C1c2ccccc2CN1c1ccnc(Oc2cccnc2)n1" is ___
12.6

* * *

# assay target: human GPR120 (Homo sapiens, UniProt Q5NUL3)
# Construct: host or cells: CHO-K1
# assay info: GPR120 β-Arrestin Recruitment Assay (PathHunter, CHO-K1 cells)
# Assay type: cell-based
# condition context: pEC50=−log(EC50) from curve fit; CHO-K1 cells, 90 min incubation; read-out: β-Arr pEC50 (converted)
# Procedure: This in vitro assay tests compounds' ability to activate intracellular signaling via 3-Arrestin recruitment to heterologously expressed human GPR120. […] Test compounds were dissolved in 100% DMSO to a concentration of 10 mM to provide stock solutions. […] Chemiluminescence was read using an EnVision plate reader (PerkinElmer), raw data were expressed as relative light units (RLU). […]
quantity: EC50 (nM)
Use nM as the unit, but write only the number.

Return EC50 measured with human GPR120 (Homo sapiens, UniProt Q5NUL3) given this molecule: "O=S1(=O)c2ccccc2CN1c1ccnc(OCc2ccccc2)n1"
15800

Return EC50 measured with human GPR120 (Homo sapiens, UniProt Q5NUL3) given this molecule: "O=S1(=O)c2ccccc2CN1c1cc(C(F)(F)F)nc(Oc2ccc(F)cc2)n1"
2000

Return EC50 measured with human GPR120 (Homo sapiens, UniProt Q5NUL3) given this molecule: "O=S1(=O)c2ccccc2CN1c1cc(C2CC2)nc(Oc2cccnc2)n1"
2510

Return EC50 measured with human GPR120 (Homo sapiens, UniProt Q5NUL3) given this molecule: "COc1cc(Oc2ccc(F)cc2)nc(N2Cc3ccccc3S2(=O)=O)n1"
398

Return EC50 measured with human GPR120 (Homo sapiens, UniProt Q5NUL3) given this molecule: "Cc1cncc(Oc2nccc(N3Cc4ccccc4S3(=O)=O)n2)c1"
5010

Return EC50 measured with human GPR120 (Homo sapiens, UniProt Q5NUL3) given this molecule: O=S1(=O)c2ccccc2CN1c1ccnc(Oc2ccc(OC(F)(F)F)cc2Cl)n1 [Compound 36]
631

Return EC50 measured with human GPR120 (Homo sapiens, UniProt Q5NUL3) given this molecule: "Cc1cc(N2Cc3ccccc3S2(=O)=O)nc(Oc2ccc(F)cc2)n1"
1000

Return EC50 measured with human GPR120 (Homo sapiens, UniProt Q5NUL3) given this molecule: "O=S1(=O)c2ccccc2CN1c1cc(C(F)(F)F)nc(Oc2ccc(Cl)cc2)n1"
631

Return EC50 measured with human GPR120 (Homo sapiens, UniProt Q5NUL3) given this molecule: "Cc1cc(Oc2ccc(Cl)cc2)nc(N2Cc3ccccc3S2(=O)=O)n1"
794

Return EC50 measured with human GPR120 (Homo sapiens, UniProt Q5NUL3) given this molecule: "COc1cc(N2Cc3ccccc3S2(=O)=O)nc(Oc2cccnc2)n1"
1580

* * *

# assay target: human GPR120 (Homo sapiens)
# Construct: host or cells: CHO-K1
# assay info: GPR120 β-Arrestin Recruitment Assay (PathHunter, CHO-K1 cells)
# Format: cell-based
# condition context: pEC50=−log(EC50) from curve fit; CHO-K1 cells, 90 min incubation; read-out: β-Arr pEC50 (converted)
For each record, check the reported EC50: if it is below 3 µM write 1 (yes), else write 0 (no).

Could you please tell me whether EC50 recorded for "COc1cncc(Oc2nccc(N3Cc4ccccc4S3(=O)=O)n2)c1" is less than 3 µM?
0 (no)

Could you please tell me whether EC50 recorded for "O=S1(=O)c2ccccc2CN1c1ccnc(Oc2cnc3ccccc3c2)n1" is less than 3 µM?
0 (no)

Could you please tell me whether EC50 recorded for "Cc1ccc(Oc2nccc(N3Cc4ccccc4S3(=O)=O)n2)cc1Cl" is less than 3 µM?
1 (yes)

Could you please tell me whether EC50 recorded for "Cc1cccc2c1CN(c1nccc(Oc3cccnc3)n1)C2" is less than 3 µM?
1 (yes)

Could you please tell me whether EC50 recorded for "O=S1(=O)c2ccccc2CN1c1ccnc(Oc2ccccc2F)n1" is less than 3 µM?
0 (no)

Could you please tell me whether EC50 recorded for "O=S1(=O)c2ccccc2CN1c1ccnc(Oc2ccc(Cl)cc2)n1" is less than 3 µM?
0 (no)

Could you please tell me whether EC50 recorded for "COc1ccc2c(c1)S(=O)(=O)N(c1nccc(Oc3cccnc3)n1)C2" is less than 3 µM?
0 (no)

Could you please tell me whether EC50 recorded for "O=C1c2ccccc2CN1c1nccc(Oc2cccnc2)n1" is less than 3 µM?
0 (no)

Could you please tell me whether EC50 recorded for "Cc1nc(Oc2ccc(Cl)cc2)nc(N2Cc3ccccc3S2(=O)=O)n1" is less than 3 µM?
1 (yes)

Could you please tell me whether EC50 recorded for "O=S1(=O)c2ccccc2CN1c1ccnc(OC2CCC2)n1" is less than 3 µM?
1 (yes)

Could you please tell me whether EC50 recorded for "O=S1(=O)c2ccccc2CN1c1ccnc(-n2ccc3ccccc32)n1" is less than 3 µM?
0 (no)

Could you please tell me whether EC50 recorded for "N#Cc1cc(N2Cc3ccccc3S2(=O)=O)nc(Oc2cccnc2)n1" is less than 3 µM?
0 (no)

Could you please tell me whether EC50 recorded for "CCOc1nccc(N2Cc3ccccc3S2(=O)=O)n1" is less than 3 µM?
0 (no)

Could you please tell me whether EC50 recorded for "O=S1(=O)c2ccccc2CN1c1cc(C(F)(F)F)nc(Oc2cccnc2)n1" is less than 3 µM?
1 (yes)

Could you please tell me whether EC50 recorded for "O=C1c2ncccc2CN1c1cccc(Oc2cccnc2)n1" is less than 3 µM?
0 (no)

Could you please tell me whether EC50 recorded for "O=S1(=O)c2ccccc2CN1c1cc(C(F)(F)F)cc(Oc2cccnc2)n1" is less than 3 µM?
1 (yes)

Could you please tell me whether EC50 recorded for "Cc1cc(Oc2cccnc2)nc(N2Cc3ccccc3S2(=O)=O)c1" is less than 3 µM?
1 (yes)

Could you please tell me whether EC50 recorded for "O=C1c2ccccc2CN1c1cccc(Oc2cccnc2)n1" is less than 3 µM?
0 (no)

Could you please tell me whether EC50 recorded for "O=S1(=O)c2ccccc2CN1c1cc(C(F)(F)F)cc(OC2CC(F)(F)C2)n1" is less than 3 µM?
0 (no)

* * *

Answer each item with its documented EC50.
# assay target: human GPR120 (Homo sapiens, UniProt Q5NUL3)
# Construct: host or cells: CHO-K1
# assay info: GPR120 β-Arrestin Recruitment Assay (PathHunter, CHO-K1 cells)
# Format: cell-based
# condition context: pEC50=−log(EC50) from curve fit; CHO-K1 cells, 90 min incubation; read-out: β-Arr pEC50 (converted)
Use µM as the unit, but write only the number.

Return EC50 measured with human GPR120 (Homo sapiens, UniProt Q5NUL3) given this molecule: COc1cc(Oc2ccccc2)nc(N2Cc3ccccc3S2(=O)=O)n1 [Compound 102]
0.794

Return EC50 measured with human GPR120 (Homo sapiens, UniProt Q5NUL3) given this molecule: Cc1cc(N2Cc3ccccc3S2(=O)=O)nc(Oc2ccccc2)n1 [Compound 107]
0.794

Return EC50 measured with human GPR120 (Homo sapiens, UniProt Q5NUL3) given this molecule: O=C1c2cccc(Br)c2CN1c1ccnc(Oc2cccnc2)n1 [Compound 113]
12.6
